Values from patent US20230017045A1

# Tested on: test plant species
# PROTOCOL: Post-emergent herbicidal activity test (greenhouse, foliar spray, visual growth reduction)
# Assay type: in vivo
# CONDITION LABEL: post-emergence, 336 h, blackgrass (Alopecurus myosuroides), 14 Days After Application, 140 g ai/ha, read-out: Visual Growth Reduction (%) ALOMY
# key: entry, value: pest or weed control at 140 g/ha
OUTCOME MEASURE: pest or weed control at 140 g/ha

> print(dat)
                                    molecule                   outcome.measure  recorded.measurement
 1  COC(=O)c1nc(-c2ccc3ccsc3c2F)ccc1Cl [F260]  pest or weed control at 140 g/ha              0 to 29%
 2  N#Cc1cc(-c2nc(C(=O)O)c(Cl)cc2F)c(Cl)cc1C(F)(F)F [F329]  pest or weed control at 140 g/ha              0 to 29%
 3  O=C(O)c1nc(-c2ccc(OC(F)(F)F)cc2Cl)ccc1Cl [F226]  pest or weed control at 140 g/ha             45 to 59%
 4  COC(=O)c1nc(-c2cc(F)c(C(F)(F)F)cc2OC)c(F)cc1Cl [F359]  pest or weed control at 140 g/ha             30 to 44%
 5  COC(=O)c1nc(-c2cc(F)c(C(F)(F)F)cc2Cl)ccc1Cl [F243]  pest or weed control at 140 g/ha             85 to 94%
 6  O=C(O)c1nc(-c2ccc(C(F)(F)F)c(C(F)F)c2F)c(F)cc1Cl [F294]  pest or weed control at 140 g/ha             75 to 84%
 7  COC(=O)c1nc(-c2ccc(C(F)(F)F)cc2Br)c(F)cc1F [F374]  pest or weed control at 140 g/ha             45 to 59%
 8  COC(=O)c1nc(-c2ccc(C(F)(F)F)cc2OC)c(F)cc1F [F377]  pest or weed control at 140 g/ha              0 to 29%
 9  C=Cc1cc(C(F)(F)F)cc(Cl)c1-c1ccc(Cl)c(C(=O)OC)n1 [F216]  pest or weed control at 140 g/ha              0 to 29%
10  COC(=O)c1nc(-c2cc(C)c(C(F)(F)F)cc2F)ccc1Cl [F361]  pest or weed control at 140 g/ha              0 to 29%
11  COC(=O)c1nc(-c2ccc(N)cc2Cl)c(F)cc1Cl [F358]  pest or weed control at 140 g/ha              0 to 29%
12  COC(=O)c1nc(-c2ccc(OC)cc2)c(F)cc1Cl [F365]  pest or weed control at 140 g/ha              0 to 29%
13  COC(=O)c1nc(-c2ccc(Cl)c(C(F)F)c2F)ccc1Cl [F273]  pest or weed control at 140 g/ha              0 to 29%
14  COC(=O)c1nc(-c2cc3nonc3cc2F)c(F)cc1Cl [F318]  pest or weed control at 140 g/ha              0 to 29%
15  COC(=O)c1nc(-c2c(C)cc(C(F)(F)F)cc2Cl)ccc1Cl [F250]  pest or weed control at 140 g/ha              0 to 29%
16  COC(=O)c1nc(-c2cc3c(cc2Cl)OC(F)(F)O3)ncc1Cl [F232]  pest or weed control at 140 g/ha              0 to 29%
